Form field: AUC (one value per entry).
test.details: in vivo
condition.description: mouse, po, 10 mg/kg, AUC (μM *h) Plasma
attribute.measured: AUC (µM·h)

>>> quantitative_result("COCCOc1ccc(-c2ccc(-c3csc(NC(=O)C4CC4)n3)cc2)cn1 [Compound 46]")
0.26
>>> quantitative_result("COCCOc1ccc(-c2ccc(-c3csc(Nc4cccc(C)n4)n3)cc2)cn1 [Compound 27]")
6.75
>>> quantitative_result("Cc1cccc(Nc2nc(-c3ccc(-c4ccnc(N5CCN(C)CC5)c4)cc3)cs2)n1 [Compound 32]")
1.57
>>> quantitative_result("Cc1cccc(Nc2nc(-c3ccc(-c4ccc[n+]([O-])c4)cc3)cs2)n1 [Compound 16]")
11.5
>>> quantitative_result("CN1CCN(c2cc(-c3ccc(-c4csc(NC(=O)C5CC5)n4)cc3)ccn2)CC1 [Compound 45]")
0.76

---

test.details: in vivo
condition.description: mouse, po, 10 mg/kg, AUC (μM *h) Brain
Mark False for AUC values under 3 µM·h, and True for everything at or above.

>>> discrete_label("COCCOc1cc(-c2ccc(-c3csc(Nc4cccc(C)n4)n3)cc2)ccn1")
"False"
>>> discrete_label("COCCOc1ccc(-c2ccc(-c3csc(NC(=O)C4CC4)n3)cc2)cn1")
"False"
>>> discrete_label("Cc1cccc(Nc2nc(-c3ccc(-c4ccnc(N5CCN(C)CC5)c4)cc3)cs2)n1")
"True"
>>> discrete_label("Cc1cccc(Nc2nc(-c3ccc(-c4ccc[n+]([O-])c4)cc3)cs2)n1")
"True"
>>> discrete_label("CN1CCN(c2cc(-c3ccc(-c4csc(NC(=O)C5CC5)n4)cc3)ccn2)CC1")
"False"
>>> discrete_label("COCCOc1ccc(-c2ccc(-c3csc(Nc4cccc(C)n4)n3)cc2)cn1")
"True"

---

test.details: in vitro
condition.description: mouse, microsomes
attribute.measured: half-life

>>> result("Cc1cccc(Nc2nc(-c3ccc(-c4ccc[n+]([O-])c4)cc3)cs2)n1 [Compound 16]")
"> 60 min"
>>> result("Cc1cccc(Nc2nc(-c3ccc(-c4ccccc4)cc3)cs2)n1 [Compound 1]")
"> 60 min"
>>> result("CN1CCN(c2cc(-c3ccc(-c4csc(NC(=O)C5CC5)n4)cc3)ccn2)CC1 [Compound 45]")
"4.4 min"
>>> result("COCCOc1ccc(-c2ccc(-c3csc(Nc4cccc(C)n4)n3)cc2)cn1 [Compound 27]")
"> 60 min"
>>> result("Cc1cccc(Nc2nc(-c3ccc(-c4ccncc4)cc3)cs2)n1 [Compound 12]")
"> 60 min"
>>> result("Cc1cccc(Nc2nc(-c3ccc(-c4ccnc(N5CCN(C)CC5)c4)cc3)cs2)n1 [Compound 32]")
"6.8 min"
>>> result("COCCOc1ccc(-c2ccc(-c3csc(NC(=O)C4CC4)n3)cc2)cn1 [Compound 46]")
"55 min"
>>> result("Cc1cccc(Nc2nc(-c3ccc(-c4cccnc4)cc3)cs2)n1 [Compound 15]")
"> 60 min"

---

test.details: in vivo
condition.description: mouse, po, 10 mg/kg
attribute.measured: Cmax (nM)

>>> quantitative_result("COCCOc1cc(-c2ccc(-c3csc(Nc4cccc(C)n4)n3)cc2)ccn1 [Compound 26]")
330
>>> quantitative_result("COCCOc1ccc(-c2ccc(-c3csc(NC(=O)C4CC4)n3)cc2)cn1 [Compound 46]")
150
>>> quantitative_result("Cc1cccc(Nc2nc(-c3ccc(-c4ccccc4)cc3)cs2)n1 [Compound 1]")
2450
>>> quantitative_result("Cc1cccc(Nc2nc(-c3ccc(-c4ccnc(N5CCN(C)CC5)c4)cc3)cs2)n1 [Compound 32]")
1170
>>> quantitative_result("COCCOc1ccc(-c2ccc(-c3csc(Nc4cccc(C)n4)n3)cc2)cn1 [Compound 27]")
970
>>> quantitative_result("CN1CCN(c2cc(-c3ccc(-c4csc(NC(=O)C5CC5)n4)cc3)ccn2)CC1 [Compound 45]")
250
>>> quantitative_result("Cc1cccc(Nc2nc(-c3ccc(-c4ccc[n+]([O-])c4)cc3)cs2)n1 [Compound 16]")
900
